// note: IC50 values for HPK1 (Homo sapiens (Human)) were reported in different studies

Some molecules with known IC50 results, for comparison:
O=C1NCc2c(-c3cnc4cc(F)ccn34)ccc(Nc3ccc(N4CC[C@H](F)[C@H](O)C4)cn3)c21 < 100 nM
COc1cccc(F)c1-n1nc2c(-c3cccc(N4CCC(O)CC4)c3)n[nH]c2cc1=O 50 to 500 nM

Turning to the following molecule.
Form field IC50 for item CCN(CC)S(=O)(=O)c1cccc(-c2ccc3cnc(Nc4cc5c(cc4OC)CCNC5)nc3c2)c1 on HPK1 (Homo sapiens (Human)): 23.9 nM

====

// note: IC50 values for HPK1 (Homo sapiens (Human)) were reported in different studies

compound	targetUnderTest	IC50
C[C@@H]1CN(c2c(NC(=O)c3ccc(=O)n(-c4c(F)cccc4F)n3)ccc3nn(C4CCC(F)(F)CC4)cc23)C[C@@H]1N	HPK1 (Homo sapiens (Human))	< 100 nM
CN(C)Cc1nc(Nc2cnc(-c3ccnc4c3ccn4C)c3c2C(=O)NC3)ccc1[C@@H]1CCOC1 (stereo in doubt)	HPK1 (Homo sapiens (Human))	< 100 nM
Cn1ccc2c(-c3ncc(Nc4ccc(N5CCC[C@H](O)C5)cn4)c4c3CNC4=O)ccnc21	HPK1 (Homo sapiens (Human))	< 100 nM
COc1cc2c(cc1Nc1ncc(C(N)=O)c(Nc3c(F)cc(I)cc3F)n1)CNCC2	HPK1 (Homo sapiens (Human))	1.83 nM
O=c1[nH]ccc2nc(-c3cc(CN4CC5(CCOC5)C4)ccc3F)cc(Nc3ccc(N4CCC(O)CC4)cn3)c12	HPK1 (Homo sapiens (Human))	> 1000 nM
N#Cc1ccn2c(-c3ccc(Nc4ccc(N5CCC(O)CC5)cn4)c4c3CNC4=O)cnc2c1F	HPK1 (Homo sapiens (Human))	< 100 nM
Cc1c(-c2cc3nc(Nc4ccc5c(c4)CCS(=O)(=O)C5)ncc3c(N)c2F)cnc2c1NCCO2	HPK1 (Homo sapiens (Human))	0.068 nM
Cc1cccc(F)c1-n1nc2c(-c3ccc4c(c3)CN(CCO)CC4)n[nH]c2cc1=O	HPK1 (Homo sapiens (Human))	≤ 50 nM
Cn1ccc2c(-c3ncc(Nc4cncc(N5CC[C@H]6CNC[C@H]65)n4)c4c3CNC4=O)ccnc21 (single isomer, unassigned)	HPK1 (Homo sapiens (Human))	< 100 nM

Turning to the following compound.
Field IC50 (entry C[C@H]1CN(c2c(NC(=O)c3ccc(=O)n(-c4c(F)cccc4F)n3)ccc3nn(C4(C)CCC4)cc23)C[C@@H]1N ) reads < 100 nM

====

// note: IC50 values for HPK1 (Homo sapiens (Human), UniProt Q92918) were reported in different studies

molecule	IC50
C/C(Nc1ccc(N2CCOCC2)cn1)=C1/C(=O)Nc2cnc(-c3cnccc3C)cc21	< 50 nM
O=C(Nc1ccc(-c2cc(Nc3ccc(N4CCC(O)CC4)cn3)c3c(=O)[nH]ccc3n2)c(F)c1)C1CCCC1	100 to 1000 nM
O=C(c1ccc(-c2cc(Nc3ccc(N4CCC(O)CC4)cn3)c3c(=O)[nH]ccc3n2)c(F)c1)N1CC2CCC(C1)O2	≤ 100 nM
CN1CCN(CC2(O)CCN(c3ccc(Nc4ccc(-c5cnc6cnccn56)c5c4C(=O)NC5)nc3)CC2)CC1	< 100 nM

For every item below, please supply its IC50.
1. Cc1c(-c2cc3nc(Nc4ccc5c(c4)CN(C)CC5)ncc3c(N)c2F)cnc2cc[nH]c12
2. Cn1cc(-c2ncc(Nc3ccc(N4CCNCC4)cn3)c3c2CNC3=O)cn1
3. COc1cccc(F)c1-c1ncc2[nH]nc(-c3ccc4c(c3)OCC3CN(C)CCN43)c2n1 (centres unmarked)
4. COc1cc(-c2cc(Nc3ccc(C4CCNCC4)cn3)c3c(=O)[nH]ccc3n2)c(F)cc1C(=O)N1CCCCC1
5. CN1CCN(c2ccc3nc(-c4c(N[C@H]5CCNC[C@@H]5F)c5ccsc5[nH]c4=O)[nH]c3c2)CC1
6. CN1CCN2c3ccc(-c4cnc5[nH]cc(-c6ccc(OC7CCNCC7)cc6)c5c4)cc3OCC2C1 (centres unmarked)
7. CN(Cc1nc(Nc2ccc(-c3cnc4cc(F)ccn34)c3c2C(=O)NC3)ccc1[C@@H]1CCOC1)C1CC1

0.103 nM
1000 to 5000 nM
10 to 100 nM
≤ 100 nM
≤ 50 nM
≤ 10 nM
< 100 nM
